Assay: Reporter assay (No. 2), cell number reporter gene (sea pansy luciferase, pRL-TK), clone of Example 3
Type: cell-based
Conditions: mouse, hepa1c1c7 cells; final conc. 10000 nM; about 6 hours; ratio to 0 nM; read-out: Amount of luminescence by sea pansy luciferase (from pRL-TK) Ratio
Description: For the measured values of the amount of expression of the cell number reporter gene, a ratio is determined of the measured value in the test substance added group to the measured value in the only solvent added group (control group). […]
MEASUREMENT KIND: viability at 6 h, 10 µM

INSERT INTO assay_data (compound, measurement_kind, reported_result) VALUES
  ('c1ccc2c(c1)cc1ccc3cccc4ccc2c1c34 [Benzo[a]pyrene, benzo[a]pyrene]', 'viability at 6 h, 10 µM', '80%');
